Target: IRAK4 (Homo sapiens)
Construct: Degradation of IRAK4 in OCI-LY10 was quantitatively measured using Meso Scale Discovery technology; endogenous in cells; host or cells: OCI-LY10
Sequence (Q9NWZ3 whole entry): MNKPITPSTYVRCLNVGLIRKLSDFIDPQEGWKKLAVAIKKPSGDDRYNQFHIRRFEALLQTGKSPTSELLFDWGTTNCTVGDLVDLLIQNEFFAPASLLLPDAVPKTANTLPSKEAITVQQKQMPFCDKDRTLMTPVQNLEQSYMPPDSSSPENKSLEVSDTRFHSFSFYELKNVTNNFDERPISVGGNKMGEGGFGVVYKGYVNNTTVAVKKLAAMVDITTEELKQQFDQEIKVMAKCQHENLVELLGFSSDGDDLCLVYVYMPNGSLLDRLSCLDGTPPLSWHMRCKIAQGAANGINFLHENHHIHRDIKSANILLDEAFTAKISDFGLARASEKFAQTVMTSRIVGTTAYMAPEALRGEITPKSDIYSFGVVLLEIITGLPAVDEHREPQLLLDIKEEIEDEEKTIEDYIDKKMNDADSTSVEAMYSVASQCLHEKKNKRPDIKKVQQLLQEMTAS
Experiment: IRAK4 MSD Degradation in OCI-LY10
Assay type: cell-based
Conditions: OCI-LY10 cells, 4 hrs incubation, MSD; read-out: IRAK4 degradation in OCI-LY10 at 4 hrs: DC50
REPORTED PROPERTY: DC50

Record Cn1c(=O)n(C2CCC(=O)NC2=O)c2cccc(C#CCN3CCN(C[C@H]4CC[C@H](n5cc(NC(=O)c6cnn7ccc(OC8CCC8)nc67)c(C(F)F)n5)CC4)CC3)c21 (some centres unmarked) . Reported DC50: > 0.2 µM

DC50 reading for Cn1c(=O)n(C2CCC(=O)NC2=O)c2cccc([C@H]3CCN(C[C@H]4CC[C@H](n5cc6cc(NC(=O)c7cccc(C#N)n7)ccc6n5)CC4)C[C@H]3F)c21 (some centres unmarked) : > 0.2 µM

Reported DC50 ( Cn1c(=O)n(C2CCC(=O)NC2=O)c2cccc(C#COCC3CCN([C@H]4CC[C@H](n5cc(NC(=O)c6cnn7ccc(N8C[C@H]9C[C@@H]8CO9)nc67)c(C(F)F)n5)CC4)CC3)c21 (some centres unmarked) ) = > 0.2 µM

GET /value?item= Cn1c(=O)n(C2CCC(=O)NC2=O)c2cccc(C#CCN3CCN(C[C@H]4CC[C@H](n5cc(NC(=O)c6cnn7ccc(N8CC(C)(C)OC(C)(C)C8)nc67)c(C(F)F)n5)CC4)CC3)c21 (some centres unmarked) &field=DC50 returns 0.01 to 0.1 µM

In plain terms, O=C1CCN(c2cncc3c(C#CCOC4CCN(C[C@H]5CC[C@H](n6cc(NC(=O)c7cnn8ccc(N9C[C@H]%10C[C@@H]9CO%10)nc78)c(C(F)F)n6)CC5)CC4)cccc23)C(=O)N1 has a documented DC50 of < 0.01 µM

Data point: Cc1cccc(C(=O)Nc2ccc3nn([C@H]4CC[C@H](CN5CC[C@@H](c6cccc7c6n(C)c(=O)n7C6CCC(=O)NC6=O)[C@H](F)C5)CC4)cc3c2)n1 (some centres unmarked) [I-621] ; DC50 = > 0.2 µM

Cn1c(=O)n(C2CCC(=O)NC2=O)c2cccc(C#CCN3CCN(C[C@H]4CC[C@H](n5cc(NC(=O)c6cnn7ccc(N8CCC(C)(C)CC8)nc67)c(C(F)F)n5)CC4)CC3)c21 (some centres unmarked) yielded DC50 of > 0.2 µM

The reported DC50 of the compound CN(C[C@H]1CC[C@H](n2cc(NC(=O)c3cnn4ccc(N5CC6(CCCOC6)C5)nc34)c(C(F)F)n2)CC1)C1CCN(c2cccc3c2n(C)c(=O)n3C2CCC(=O)NC2=O)CC1(F)F (some centres unmarked) was > 0.2 µM

Lab note: Cn1c(=O)n(C2CCC(=O)NC2=O)c2cccc([C@@H]3CCN(C[C@H]4CC[C@H](n5cc6cc(NC(=O)c7cccc(C#N)n7)ccc6n5)CC4)C[C@H]3F)c21 (some centres unmarked) gave DC50 of > 0.2 µM

// sample Cn1c(=O)n(C2CCC(=O)NC2=O)c2cccc(C#CCOC3CCN(CC4CCN(c5ccc(C(F)F)c(NC(=O)c6cnn7ccc(N8C[C@H]9C[C@@H]8CO9)nc67)c5)CC4)CC3)c21 (some centres unmarked) , its DC50 was > 0.2 µM

The compound identified as Cn1c(=O)n(C2CCC(=O)NC2=O)c2cccc(C3CCN(CC4COC5(C4)CN(C[C@H]4CC[C@H](n6cc(NC(=O)c7cnn8ccc(N9C[C@H]%10C[C@@H]9CO%10)nc78)c(C(F)F)n6)CC4)C5)CC3)c21 (some centres unmarked) registered its DC50 at > 0.2 µM

Value of DC50 reported for the compound Cn1c(=O)n(C2CCC(=O)NC2=O)c2cccc(C#CCOC3CCN(CC4CCN(c5nc(C(F)F)c(NC(=O)c6cnn7ccc(N8C[C@H]9C[C@@H]8CO9)nc67)s5)CC4)CC3)c21 (some centres unmarked) is > 0.2 µM

Form: compound = Cn1c(=O)n(C2CCC(=O)NC2=O)c2cccc(OC3CN(C[C@H]4CC[C@H](n5cc6cc(NC(=O)c7cccc(C(F)(F)F)n7)ccc6n5)CC4)C3)c21 (some centres unmarked) ; DC50 = > 0.2 µM

The reported DC50 of the compound Cn1c(=O)n(C2CCC(=O)NC2=O)c2cccc(C#CCO[C@H]3CCN(C[C@H]4CC[C@H](n5cc(NC(=O)c6cnn7ccc(N8C[C@H]9C[C@@H]8CO9)nc67)c(C(F)F)n5)CC4)C[C@H]3F)c21 (some centres unmarked) was 0.01 to 0.1 µM

response.value for Cn1c(=O)n(C2CCC(=O)NC2=O)c2cccc([C@H]3C[C@H](O[C@H]4CCN(C[C@H]5CC[C@H](n6cc(NC(=O)c7cnn8ccc(N9C[C@H]%10C[C@@H]9CO%10)nc78)c(C(F)F)n6)CC5)C[C@@H]4F)C3)c21 (some centres unmarked) (field: DC50) = > 0.2 µM

What the record says about Cn1c(=O)n(C2CCC(=O)NC2=O)c2cccc(C3CCN(C[C@H]4CC[C@H](n5cc6cc(NC(=O)c7cccc(C(F)F)n7)ncc6n5)CC4)CC3(F)F)c21 (some centres unmarked) : DC50 is > 0.2 µM

compound Cn1c(=O)n(C2CCC(=O)NC2=O)c2cccc(C#CCN3CCN(C[C@H]4CC[C@H](n5cc(NC(=O)c6cnn7ccc(N8CCOC9(CCC9)C8)nc67)c(C(F)F)n5)CC4)CC3)c21 (some centres unmarked) , DC50 observed: > 0.2 µM

// DC50 lookup, compound = CC([C@H]1CC[C@H](n2cc(NC(=O)c3cnn4ccc(C5CC6C[C@@H]5CO6)nc34)c(C(F)F)n2)CC1)N1CCC(OCC#Cc2cccc3c2n(C)c(=O)n3C2CCC(=O)NC2=O)CC1 (some centres unmarked) , result: > 0.2 µM

Query Cn1c(=O)n(C2CCC(=O)NC2=O)c2cccc(C3CCN(C[C@]4(O)CC[C@@H](n5cc6cc(NC(=O)c7cccc(C(F)(F)F)n7)ccc6n5)CC4)CC3)c21 (some centres unmarked) [I-461] yields DC50 of > 0.2 µM

Noted for COc1ccc2c(c1C1CCN(C[C@H]3CC[C@H](n4cc5cc(NC(=O)c6cccc(C(F)(F)F)n6)ncc5n4)CC3)CC1(F)F)n(C)c(=O)n2C1CCC(=O)NC1=O (some centres unmarked) : its DC50 reads > 0.2 µM
